Recorded values, source ChEMBL document CHEMBL2424518.

Consider the following compounds; for each one, report its IC50.
# Tgt: cGMP-inhibited 3',5'-cyclic phosphodiesterase 3A (Homo sapiens, UniProt Q14432)
# Sequence (Q14432 whole entry): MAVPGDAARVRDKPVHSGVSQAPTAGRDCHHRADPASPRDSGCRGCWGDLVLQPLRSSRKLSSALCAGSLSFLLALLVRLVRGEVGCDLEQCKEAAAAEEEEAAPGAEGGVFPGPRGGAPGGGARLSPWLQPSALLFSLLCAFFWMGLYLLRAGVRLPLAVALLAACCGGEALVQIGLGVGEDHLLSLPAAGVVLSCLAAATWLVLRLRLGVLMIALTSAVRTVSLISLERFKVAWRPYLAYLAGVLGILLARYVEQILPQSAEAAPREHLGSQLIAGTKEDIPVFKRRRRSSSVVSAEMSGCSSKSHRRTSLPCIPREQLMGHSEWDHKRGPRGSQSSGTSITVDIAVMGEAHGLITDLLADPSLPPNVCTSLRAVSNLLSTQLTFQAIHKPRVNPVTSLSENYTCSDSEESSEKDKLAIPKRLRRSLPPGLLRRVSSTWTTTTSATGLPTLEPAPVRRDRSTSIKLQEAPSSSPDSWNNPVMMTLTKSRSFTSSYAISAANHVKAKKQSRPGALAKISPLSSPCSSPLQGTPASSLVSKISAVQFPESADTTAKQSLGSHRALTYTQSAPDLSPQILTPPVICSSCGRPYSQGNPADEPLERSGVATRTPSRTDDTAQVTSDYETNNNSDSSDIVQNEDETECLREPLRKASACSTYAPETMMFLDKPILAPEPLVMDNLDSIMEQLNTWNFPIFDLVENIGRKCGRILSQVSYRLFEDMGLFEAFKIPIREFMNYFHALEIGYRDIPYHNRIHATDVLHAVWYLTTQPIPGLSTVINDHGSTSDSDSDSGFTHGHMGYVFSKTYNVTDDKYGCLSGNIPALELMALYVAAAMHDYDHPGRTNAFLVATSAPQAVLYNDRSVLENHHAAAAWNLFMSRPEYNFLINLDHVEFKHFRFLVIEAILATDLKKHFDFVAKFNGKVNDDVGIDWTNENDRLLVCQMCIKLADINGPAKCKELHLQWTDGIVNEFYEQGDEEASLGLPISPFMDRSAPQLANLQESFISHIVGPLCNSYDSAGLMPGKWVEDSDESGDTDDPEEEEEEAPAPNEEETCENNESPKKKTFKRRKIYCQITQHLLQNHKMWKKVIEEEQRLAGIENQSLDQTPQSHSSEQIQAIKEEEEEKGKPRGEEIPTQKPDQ

COc1ccc(C(=O)Nc2c(Cl)cncc2Cl)c2ccnn12 > 100 µM

For every item in the list below, what is its measured IC50?
1. CCc1cc2c(C(=O)Nc3c(Cl)cncc3Cl)ccc(OC)n2n1
2. COc1ccc(CNc2c(Cl)cncc2Cl)c2cc(C(F)(F)F)nn12
3. CSc1ccc(C(=O)Nc2c(Cl)cncc2Cl)c2cc(C(F)(F)F)nn12
4. COc1ccc(/C=C/c2ccncc2)c2cc(C(F)(F)F)nn12
5. COc1ccc(Cc2ccncc2)c2cc(C(F)(F)F)nn12
6. O=C(Nc1c(Cl)cncc1Cl)c1ccc(OC(F)F)c(OCC2CC2)c1

1: > 100 µM; 2: 71.4 µM; 3: > 100 µM; 4: 67.1 µM; 5: > 100 µM; 6: > 100 µM

====

# Test system: Rattus norvegicus
# Assay overview: Antiinflammatory activity in LPS-stimulated rat assessed as total number of leukocytes in bronchoalveolar lavage fluid at 1 mg/kg, po administered 1 hr before LPS challenge measured after 3 hrs
# Type: functional, Lung
Readout name: Activity (%)
Give bare numbers, in %.

Here are 3 compounds together with their reported answers.
Compound	Unit tag	Activity
COCc1cc2c(C(=O)Nc3c(Cl)cncc3Cl)ccc(OC)n2n1	%	54
COc1ccc(C2=NNC(=O)CC2C)c2cc(C(F)(F)F)nn12 (single isomer, unassigned; (-))	%	79
COc1ccc(C(=O)Nc2c(Cl)cncc2Cl)c2cc(C(F)(F)F)nn12	%	60

Can you look up the measured Activity of `COc1ccc(C(=O)Nc2c(Cl)c[n+]([O-])cc2Cl)c2cc(C3CC3)nn12` for me?
62

====

Could you please report measured Activity for the items listed next?
# System: Rattus norvegicus
# Assay overview: Antiinflammatory activity in LPS-stimulated rat assessed as total number of leukocytes in bronchoalveolar lavage fluid at 3 mg/kg, po administered 1 hr before LPS challenge measured after 3 hrs
# Format: functional, Lung
One number for each entry, in %.

Could you report Activity for every entry in the following list?
1. COc1ccc(C(=O)Nc2c(Cl)cncc2Cl)c2cc(C#N)nn12
2. COc1ccc(C(=O)Nc2c(Cl)c[n+]([O-])cc2Cl)c2cc(C(F)(F)F)nn12
3. CCc1cc2c(C(=O)Nc3c(Cl)c[n+]([O-])cc3Cl)ccc(OC)n2n1

[66, 77, 40]

Quick one: give me Activity for each item below, same order please.
1. COc1ccc(C(=O)Nc2c(Cl)cncc2Cl)c2cc(C3CC3)nn12
2. COc1ccc(C(=O)Nc2c(Cl)cncc2Cl)c2cc(C(C)=O)nn12
3. COCc1ccc(C(=O)Nc2c(Cl)cncc2Cl)c2cc(C(F)(F)F)nn12

71
41
31

Record Activity per entry; entries follow.
1. COc1ccc(C(=O)Nc2c(Cl)cncc2Cl)c2cc(C(C)O)nn12 (centres undefined)
2. COc1ccc(C(=O)Nc2c(Cl)cncc2Cl)c2ccnn12
3. COc1ccc(C(=O)Nc2c(Cl)c[n+]([O-])cc2Cl)c2ccnn12
4. CC(=O)c1ccc(C(=O)Nc2c(Cl)cncc2Cl)c2cc(C(F)(F)F)nn12
5. CNc1ccc(C(=O)Nc2c(Cl)cncc2Cl)c2cc(C(F)(F)F)nn12
6. COc1ccc(C(=O)Nc2c(Cl)cncc2Cl)c2cc(C(C)C)nn12

1: 60; 2: 0; 3: 57; 4: 43; 5: 33; 6: 64

====

# System: Rattus norvegicus
# Assay overview: Antiinflammatory activity in LPS-stimulated rat assessed as total number of leukocytes in bronchoalveolar lavage fluid at 3 mg/kg, po administered 1 hr before LPS challenge measured after 3 hrs
# Assay type: functional, Lung
Kindly supply the reported Activity values for the records listed here.
Give bare numbers, in %.

Compound	Unit tag	Number
COc1ccc(C(=O)Nc2c(Cl)cncc2Cl)c2cc(/C=N/O)nn12	%	41

Provide the reported Activity of each entry below, same order.
1. COc1ccc(/C=C/c2ccncc2)c2cc(C(F)(F)F)nn12
2. COc1ccc(C(=O)Nc2c(Cl)c[n+]([O-])cc2Cl)c2cc(C#N)nn12
3. COc1ccc(C(=O)Nc2c(Cl)cncc2Cl)c2cc(C=O)nn12
4. O=C(Nc1c(Cl)cncc1Cl)c1ccc(CO)n2nc(C(F)(F)F)cc12
5. COCc1cc2c(C(=O)Nc3c(Cl)c[n+]([O-])cc3Cl)ccc(OC)n2n1
6. COc1ccc(CCc2ccncc2)c2cc(C(F)(F)F)nn12
7. CC(O)c1ccc(C(=O)Nc2c(Cl)cncc2Cl)c2cc(C(F)(F)F)nn12 (configuration not stated)
8. CCc1cc2c(C(=O)Nc3c(Cl)cncc3Cl)ccc(OC)n2n1

57
61
64
26
18
55
59
53

Batch lookup, Activity per entry.
1. COc1ccc(/C=C/c2c(Cl)cncc2Cl)c2cc(C(F)(F)F)nn12
2. CSc1ccc(C(=O)Nc2c(Cl)cncc2Cl)c2cc(C(F)(F)F)nn12
3. COc1ccc(C(=O)Nc2c(Cl)cncc2Cl)c2cc(C(F)F)nn12

39
52
32
